// data source = patent US20070004680A1

Target: ASIC3 (Rattus norvegicus)
Sequence (O35240 whole entry): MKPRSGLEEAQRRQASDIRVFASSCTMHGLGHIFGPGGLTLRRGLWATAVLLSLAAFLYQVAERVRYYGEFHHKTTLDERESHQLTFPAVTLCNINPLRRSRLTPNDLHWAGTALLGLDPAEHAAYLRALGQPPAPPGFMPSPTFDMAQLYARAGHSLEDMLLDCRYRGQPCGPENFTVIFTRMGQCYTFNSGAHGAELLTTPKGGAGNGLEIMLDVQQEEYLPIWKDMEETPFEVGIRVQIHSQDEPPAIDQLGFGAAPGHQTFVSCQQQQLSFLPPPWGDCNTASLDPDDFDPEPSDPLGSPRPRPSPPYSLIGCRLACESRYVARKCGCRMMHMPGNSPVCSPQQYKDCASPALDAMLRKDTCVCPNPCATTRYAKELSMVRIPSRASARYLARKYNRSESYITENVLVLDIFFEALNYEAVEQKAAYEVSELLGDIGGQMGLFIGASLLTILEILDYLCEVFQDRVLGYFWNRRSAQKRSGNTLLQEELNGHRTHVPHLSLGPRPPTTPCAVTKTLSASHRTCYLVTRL
Experiment: whole cell patch clamp electrophysiology, ASIC3
Settings: patch clamp, pH 6.5
From the text: Another example of an in vitro assessment method consists of using mammalian heterologous expression systems, which are known to the skilled in the art, and include a variety of mammalian cell lines such as COS, HEK, e.g., HEK293and/or CHO, cells. Cell lines are transfected with gated ion channel(s) and used to perform electrophysiology as follows: […]
readout type: IC50

-- ask Reported IC50 for C=CC1CN2CCC1CC2[C@@H](OC(=O)CCC1CCCC1)c1ccnc2ccccc12 (stereo partly shown) : what is it?
-- reply 4 to 6 µM

* * *

Biological target: UniProt:P78348
Sequence (P78348 whole entry, species assumed): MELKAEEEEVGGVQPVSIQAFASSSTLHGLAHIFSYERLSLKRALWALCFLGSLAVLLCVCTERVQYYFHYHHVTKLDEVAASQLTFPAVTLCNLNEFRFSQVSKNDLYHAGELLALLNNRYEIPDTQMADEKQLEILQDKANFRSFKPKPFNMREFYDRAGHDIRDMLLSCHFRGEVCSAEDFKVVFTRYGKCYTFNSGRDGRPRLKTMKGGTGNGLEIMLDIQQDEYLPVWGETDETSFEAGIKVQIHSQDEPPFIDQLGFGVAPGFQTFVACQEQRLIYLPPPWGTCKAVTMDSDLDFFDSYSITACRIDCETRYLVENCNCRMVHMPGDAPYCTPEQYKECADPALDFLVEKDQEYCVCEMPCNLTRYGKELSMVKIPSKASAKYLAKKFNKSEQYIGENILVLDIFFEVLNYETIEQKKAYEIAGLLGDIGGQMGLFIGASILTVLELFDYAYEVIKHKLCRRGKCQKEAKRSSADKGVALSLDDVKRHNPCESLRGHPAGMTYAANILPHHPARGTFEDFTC
Assay: FLIPR calcium assay (MES-induced calcium response), ASIC1a expressing HEK293 cells
Details: HEK cells, MES-induced calcium response, peak values
readout type: IC50

-- ask Reported IC50 for C=CC1CN2CCC1CC2[C@@H](OC(=O)CCC1CCCC1)c1ccnc2ccccc12 (stereo partly shown) : what is it?
-- reply 1000 to 4000 nM
